test.system: human sucrase (Homo sapiens, UniProt P14410)
Construct: an in vitro assay using Caco-2/TC7 cell extracts containing sucrase, maltase and isomaltase was conducted; endogenous in cells
test.name: Sucrase inhibition in Caco-2/TC7 cell-free extract, sucrose as substrate, HPAE-PAD
assay.context: Caco-2/TC7 CFE, 20 mM sucrose, 10 min 37 °C; mean ± SEM, n = 3; read-out: 50% inhibitory concentration (IC50) Sucrase
attribute.measured: IC50
Please answer using the number first and the unit second.

Example entries begin here.
compound	IC50
O=c1c(O)c(-c2ccc(O)c(O)c2)oc2cc(O)cc(O)c12 [Quercetin, quercetin]	162 µM
O=c1c(O)c(-c2ccc(O)c(O)c2)oc2cc(O)c(O)c(O)c12 [Quercetagetin, quercetagetin]	21.7 µM

Exercise: Consider the compound O=C(O[C@@H]1Cc2c(O)cc(O)cc2O[C@@H]1c1cc(O)c(O)c(O)c1)c1cc(O)c(O)c(O)c1 [EGCG, (−)-epigallocatechin-3-gallate, reference compound] . State its measured IC50.
Key: 175 µM

----------
test.system: human isomaltase (Homo sapiens, UniProt P14410)
Construct: an in vitro assay using Caco-2/TC7 cell extracts containing sucrase, maltase and isomaltase was conducted; endogenous in cells; host or cells: Caco-2/TC7 (human colon adenocarcinoma), 21 days post-confluence, crude cell-free extract
Sequence (P14410 whole entry): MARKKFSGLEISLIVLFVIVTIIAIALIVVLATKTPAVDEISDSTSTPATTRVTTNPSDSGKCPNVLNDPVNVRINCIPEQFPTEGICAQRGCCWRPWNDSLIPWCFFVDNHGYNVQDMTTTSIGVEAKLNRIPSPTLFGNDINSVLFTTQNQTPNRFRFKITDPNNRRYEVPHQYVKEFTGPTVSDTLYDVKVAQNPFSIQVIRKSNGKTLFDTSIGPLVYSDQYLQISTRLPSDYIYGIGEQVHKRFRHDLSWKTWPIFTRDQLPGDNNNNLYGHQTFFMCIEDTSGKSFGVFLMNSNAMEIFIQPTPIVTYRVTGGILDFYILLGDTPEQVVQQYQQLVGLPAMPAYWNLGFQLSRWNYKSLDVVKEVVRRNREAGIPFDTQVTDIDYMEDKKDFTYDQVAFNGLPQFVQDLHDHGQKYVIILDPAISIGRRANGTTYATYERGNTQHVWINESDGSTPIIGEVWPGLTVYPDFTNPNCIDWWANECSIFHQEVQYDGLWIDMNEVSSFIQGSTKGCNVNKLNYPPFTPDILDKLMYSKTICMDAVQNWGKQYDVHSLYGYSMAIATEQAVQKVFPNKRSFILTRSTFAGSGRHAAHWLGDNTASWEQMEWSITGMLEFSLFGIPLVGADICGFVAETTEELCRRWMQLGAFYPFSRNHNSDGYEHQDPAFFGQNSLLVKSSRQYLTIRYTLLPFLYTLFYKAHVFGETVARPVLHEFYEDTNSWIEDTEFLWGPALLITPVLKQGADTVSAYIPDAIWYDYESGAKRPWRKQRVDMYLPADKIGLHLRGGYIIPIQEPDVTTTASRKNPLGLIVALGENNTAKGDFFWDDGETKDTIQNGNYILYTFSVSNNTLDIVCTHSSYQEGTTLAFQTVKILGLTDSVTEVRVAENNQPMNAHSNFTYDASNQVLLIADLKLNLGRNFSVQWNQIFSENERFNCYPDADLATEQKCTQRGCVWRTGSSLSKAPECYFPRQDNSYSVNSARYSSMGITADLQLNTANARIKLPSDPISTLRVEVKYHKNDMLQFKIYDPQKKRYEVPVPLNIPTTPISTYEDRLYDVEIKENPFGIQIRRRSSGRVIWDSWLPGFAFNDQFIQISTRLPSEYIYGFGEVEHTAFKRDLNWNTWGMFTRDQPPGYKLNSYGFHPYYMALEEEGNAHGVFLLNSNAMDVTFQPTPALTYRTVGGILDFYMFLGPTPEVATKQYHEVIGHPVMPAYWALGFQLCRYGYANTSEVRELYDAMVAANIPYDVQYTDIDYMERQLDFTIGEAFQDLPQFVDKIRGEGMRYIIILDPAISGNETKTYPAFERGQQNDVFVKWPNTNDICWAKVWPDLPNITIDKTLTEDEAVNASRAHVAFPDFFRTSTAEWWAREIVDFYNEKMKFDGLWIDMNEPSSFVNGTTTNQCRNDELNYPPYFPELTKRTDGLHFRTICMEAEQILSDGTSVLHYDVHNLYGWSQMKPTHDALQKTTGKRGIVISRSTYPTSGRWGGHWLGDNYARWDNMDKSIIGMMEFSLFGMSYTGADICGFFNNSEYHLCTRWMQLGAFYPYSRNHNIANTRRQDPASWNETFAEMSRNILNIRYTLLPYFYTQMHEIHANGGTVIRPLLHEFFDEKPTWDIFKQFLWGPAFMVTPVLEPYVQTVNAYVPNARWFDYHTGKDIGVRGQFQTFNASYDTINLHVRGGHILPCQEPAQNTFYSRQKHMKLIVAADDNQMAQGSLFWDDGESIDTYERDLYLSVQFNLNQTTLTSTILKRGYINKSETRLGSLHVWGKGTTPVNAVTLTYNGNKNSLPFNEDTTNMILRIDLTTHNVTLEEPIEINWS
test.name: Isomaltase inhibition in Caco-2/TC7 cell-free extract, isomaltose as substrate, HPAE-PAD
Assay type: biochemical
assay.context: Caco-2/TC7 CFE, isomaltose; mean ± SEM, n = 3
Marks after values point to notes of the source that are not given here.
attribute.measured: 15% inhibitory concentration (IC15) Isomaltase

molecule	observed.value
O=C(O[C@@H]1Cc2c(O)cc(O)cc2O[C@@H]1c1cc(O)c(O)c(O)c1)c1cc(O)c(O)c(O)c1 [EGCG, (−)-epigallocatechin-3-gallate, reference compound]	118.6 ± 18.0 ^b µM
C[C@H]1O[C@H](O[C@H]2[C@H](O)[C@@H](O)[C@@H](O[C@H]3[C@H](O)[C@@H](O)C(O)O[C@@H]3CO)O[C@@H]2CO)[C@H](O)[C@@H](O)[C@@H]1N[C@H]1C=C(CO)[C@@H](O)[C@H](O)[C@H]1O (stereo partly drawn) [Acarbose, acarbose, reference compound]	7.8 ± 0.7 ^a µM
O=c1c(O)c(-c2ccc(O)c(O)c2)oc2cc(O)c(O)c(O)c12	5.9 ± 1.9 ^a µM

Exercise: Consider the molecule O=c1c(O)c(-c2ccc(O)c(O)c2)oc2cc(O)cc(O)c12 . State its measured 15% inhibitory concentration (IC15) Isomaltase.
Key: 104.0 ± 18.8 ^b µM

Exercise: Consider the molecule O=c1c(O)c(-c2ccc(O)cc2)oc2cc(O)cc(O)c12 . State its measured 15% inhibitory concentration (IC15) Isomaltase.
Key: 12.5 ± 3.7 ^a µM

Exercise: Consider the molecule O=c1c(O)c(-c2ccccc2)oc2cc(O)cc(O)c12 . State its measured 15% inhibitory concentration (IC15) Isomaltase.
Key: 9.3 ± 1.2 ^a µM

----------
test.system: human isomaltase (Homo sapiens)
Construct: an in vitro assay using Caco-2/TC7 cell extracts containing sucrase, maltase and isomaltase was conducted; endogenous in cells; host or cells: Caco-2/TC7 (human colon adenocarcinoma), 21 days post-confluence, crude cell-free extract
test.name: Isomaltase inhibition in Caco-2/TC7 cell-free extract, isomaltose as substrate, HPAE-PAD
Type: biochemical
assay.context: Caco-2/TC7 CFE, isomaltose; mean ± SEM, n = 3
Marks after values point to notes of the source that are not given here.
Examples of compounds with documented 25% inhibitory concentration (IC25) Isomaltase follow.

Example entries begin here.
compound	observed.value
O=c1c(O)c(-c2ccc(O)cc2)oc2cc(O)cc(O)c12 [Kaempferol, kaempferol]	34.0 ± 8.4 ^a µM
O=C(O[C@@H]1Cc2c(O)cc(O)cc2O[C@@H]1c1cc(O)c(O)c(O)c1)c1cc(O)c(O)c(O)c1 [EGCG, (−)-epigallocatechin-3-gallate, reference compound]	241.9 ± 40.4 ^b µM
C[C@H]1O[C@H](O[C@H]2[C@H](O)[C@@H](O)[C@@H](O[C@H]3[C@H](O)[C@@H](O)C(O)O[C@@H]3CO)O[C@@H]2CO)[C@H](O)[C@@H](O)[C@@H]1N[C@H]1C=C(CO)[C@@H](O)[C@H](O)[C@H]1O (stereo partly shown) [Acarbose, acarbose, reference compound]	14.4 ± 1.1 ^a µM

Exercise: Consider the compound O=c1c(O)c(-c2ccc(O)c(O)c2)oc2cc(O)c(O)c(O)c12 [Quercetagetin, quercetagetin] . State its measured 25% inhibitory concentration (IC25) Isomaltase.
Key: 20.3 ± 7.3 ^a µM
